test_description: NCI Yeast Anticancer Drug Screen. Data for the cln2 rad14 strain (AID 165);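 note: 0% = growth equal to vehicle treated cultures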
cond: S. cerevisiae cln2 rad14 strain, active compounds read high; at 50.0 µM unless noted
About 79,000 compounds went through this panel and 15% of them were active in at least one assay; those are over-represented in the sample as a whole.
Entries annotated with measured growth inhibition
parameter_measured: growth inhibition (%)

compound: COC(=O)c1c(C)nc(C)c(N=O)c1-c1ccccc1C(F)(F)F
parameter_measured: growth inhibition
unit_abbreviation: %
numeric_value: 20.1
//
compound: COC(=O)C(Cc1ccccc1)N=Cc1c(O)c(O)c(C(C)C)c2cc(C)c(-c3c(C)cc4c(C(C)C)c(O)c(O)c(C=NC(Cc5ccccc5)C(=O)OC)c4c3O)c(O)c12 (centres undefined)
parameter_measured: growth inhibition
unit_abbreviation: %
numeric_value: 17.1
//
compound: O=C(CCCl)Nc1ccc(C(=O)CCc2cccc(NC(=O)CCCl)c2)cc1
parameter_measured: growth inhibition
unit_abbreviation: %
numeric_value: 22.5
//
compound: CC(=O)c1cccc(NC(=O)CCCCCCCCC(=O)Nc2cccc(C(C)=O)c2)c1
parameter_measured: growth inhibition
unit_abbreviation: %
numeric_value: -49.5

Just for reference, PubChem BioAssay (NCI) is where these values come from.
